target: human tissue factor (TF), membrane-bound on cells (human, UniProt P13726 33-295); experiment: cell-based or functional assay
readoutLabel: IC50, inhibition of FVIIa induced ERK phosphorylation (A431) (nM)

INSERT INTO assay_data (binder, unitdescriptor, valuemodifier, measured) VALUES
  ('anti-TF HuMab 098 (antibody, V domains shown, Human monoclonal antibody from HuMab mice; also called HuMab-TF-098; HuMab-TF-98) VH: QVQLVQSGAEVRKPGSSVKVSCKASGGSFNNYPIFWVRQAPGQGFEWMGRIIPILGITAYAQKFQGRVTITADKSTSTAYMELNSLRSEDTAVYYCAGGDDLDAFDIWGQGTMVSVSS VL: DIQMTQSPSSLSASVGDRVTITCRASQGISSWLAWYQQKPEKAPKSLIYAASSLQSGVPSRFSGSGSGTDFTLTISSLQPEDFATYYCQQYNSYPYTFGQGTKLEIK', 'nM', '=', 1.89),
  ('anti-TF HuMab 101 (antibody, V domains shown, Human monoclonal antibody from HuMab mice) VH: EVQLLESGGGLVQPGGSLRLSCAASGFTFSNYAMSWVRQAPAKGLDWVSGISGSGVTTYYADSVKGRFTISRDNSKDTLYLQMNSLRAEDTAVYFCAKTPWGYYFDYWGQGILVAVSS VL: DIQMTQSPSSLSASVGDRVTITCRASQGISSWLAWYQQKPEKAPKSLIYAASSLQSGVPSRFSGSGSGTDFTLTISSLQPEDFATYYCQQYNSYPLYTFGQGTKLEIK', 'nM', '=', 1.05),
  ('anti-TF HuMab 025 (antibody, V domains shown, Human monoclonal antibody from HuMab mice) VH: QVQLVESGGGVVQPGRSLRLSCAASGFTFSRYAMHWVRQAPGKGLEWVAVISNDGYNDYYADSVKGRFTVSRDNSKNTLYLQMNSLRAEDTAVYYCARDGQLGRGYFDYWGQGTLVTVSS VL: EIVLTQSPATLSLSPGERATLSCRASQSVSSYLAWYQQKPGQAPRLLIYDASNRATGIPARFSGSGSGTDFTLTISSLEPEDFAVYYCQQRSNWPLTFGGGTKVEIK', 'nM', '=', 2.16),
  ('anti-TF HuMab 044 (antibody, V domains shown, Human monoclonal antibody from HuMab mice) VH: QVQLVESGGGVVQPGRSLRLSCAASGFTFSDYAMHWVRQAPGKGLEWVAVIPYDGDNKYYADSVKGRFTISRDNSKNTLYLQMNSLRAEDTAVYYCAREDWGLEVDYWGQGALVTVSS VL: AIQLTQSPSSLSASVGDRVTITCRASQGINSALAWYQQKPGKAPKLLIYDASSLESGVPSRFSGSGSGTDFTLTISSLQPEDFATYYCQQFNSYPLTFGGGTKVEIK', 'nM', '>', 66.6);
